Some variants, each annotated with its measured protein stability index.
B1: MMP1 (parent)
chain: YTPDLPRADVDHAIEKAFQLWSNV

Variants of: B1
Assay: protein stability index of a GFP-peptide fusion (GPS, HEK-293T) (PSI 1-6); higher = more stable;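 further: lentivirally expressed fusions sorted by FACS into six bins by GFP to DsRed ratio, PSI derived from sequencing read proportions per bin multiplied by bin number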
Details: c terminus: a fixed tail appended
Reply with the value as a number alone.

# example entries with known answers
In [3]: df
Out[3]:
   alteration             test_readout  test_value
0        Q19F  protein stability index        2.43
1         Y1E  protein stability index        3.53
2        W21L  protein stability index        3.56
3        N23E  protein stability index        2.49
4        K16S  protein stability index           2

What the record says about R7E : protein stability index is 1.94

What the record says about D11G : protein stability index is 3.41

What the record says about L5M : protein stability index is 2.12

What the record says about I14S : protein stability index is 1.51

What the record says about A8E : protein stability index is 2.67

What the record says about F18D : protein stability index is 2.18

What the record says about T2Y : protein stability index is 2.45

What the record says about R7H : protein stability index is 1.89

What the record says about D4T : protein stability index is 3.69

What the record says about D4R : protein stability index is 2.52

What the record says about V24M : protein stability index is 2.29

What the record says about Q19E : protein stability index is 1.98
